Assay: Induction of phospholipidosis in bovine corneal fibroblasts assessed as lamellar inclusion bodies after 72 hrs by light microscopy
Set-up: species or system Bos taurus, Cornea
Settings: cattle, corneal fibroblast
quantity measured: Activity

Known results for compounds:
In [3]: df
Out[3]:
                                   compound  result_value
0        Cc1ccc2c(n1)N1[C@@H](CNC[C@H]1C)C2     Non-toxic
1  CC(C)COc1ccc(S(C)(=O)=O)cc1C(=O)N1Cc2cnc(C(F)(F)F)cc2C1     Non-toxic
2          CN(C)CCCN1c2ccccc2Sc2ccc(Cl)cc21         Toxic
3  Cc1cc(-c2cc(-c3ccccc3C)c(C(=O)NCc3cc(C(F)(F)F)cc(C(F)(F)F)c3)cn2)ccn1     Non-toxic
4                           CCCC(CCC)C(=O)O     Non-toxic
5  CN(C(=O)C(C)(C)c1cc(C(F)(F)F)cc(C(F)(F)F)c1)c1cnc(NCCO)cc1-c1ccccc1Cl     Non-toxic
6  CC(OCC1CC1)c1ccc2c(n1)N1[C@@H](CNC[C@H]1C)C2 (stereo not given in full)         Toxic
7  CS(=O)(=O)O.Cc1cc(-c2cnccn2)nn1CCC(C)(C)NCC(=O)N1CCC[C@H]1C#N     Non-toxic

What value of Activity has been recorded for this entry: CN(C)CCCC1(c2ccc(F)cc2)OCc2cc(C#N)ccc21 (stereo not given) Toxic

What do you get for CN(C)CCCN1c2ccccc2CCc2ccccc21 ? Toxic

###

Experiment: Induction of phospholipidosis in bovine corneal fibroblasts assessed as lamellar inclusion bodies after 72 hrs by light microscopy
Design: species or system Bos taurus, Cornea
Conditions: cattle, corneal fibroblast
quantity measured: Activity

Here are 5 compounds together with their reported answers.
compound	Activity
CN1C(=O)CN=C(c2ccccc2)c2cc(Cl)ccc21	Non-toxic
CC(C)NCC(O)COc1cccc2ccccc12 (stereo not drawn)	Toxic
C[C@@H]1CNC[C@H]2Cc3ccc(Cl)nc3N21	Non-toxic
CCCC[C@@H]1CC(=O)[C@]2(O)O[C@@H]3[C@@H](NC)[C@@H](O)[C@@H](NC)[C@H](O)[C@H]3O[C@@H]2O1	Non-toxic
NCC[C@H](O)C(=O)N[C@@H]1C[C@H](N)[C@@H](O[C@H]2O[C@H](CN)[C@@H](O)[C@H](O)[C@H]2O)[C@H](O)[C@H]1O[C@H]1O[C@H](CO)[C@@H](O)[C@H](N)[C@H]1O	Non-toxic

Recorded Activity of CCN(CC)CCCC(C)Nc1c2ccc(Cl)cc2nc2ccc(OC)cc12 (stereo not drawn) , please. Toxic

Also CN1CCN(C(c2ccccc2)c2ccccc2)CC1 ? Toxic

Queued: CCN(CC)CCCC(C)Nc1ccnc2cc(Cl)ccc12 (stereo not drawn) Toxic

###

Assay: Induction of phospholipidosis in bovine corneal fibroblasts assessed as lamellar inclusion bodies after 72 hrs by light microscopy
Parameters: species or system Bos taurus, Cornea
Settings: cattle, corneal fibroblast
quantity measured: Activity

compound	Activity
Cc1c(Cl)ccc2c1N1[C@H](CNC[C@H]1C)C2	Toxic
CCCCc1oc2ccccc2c1C(=O)c1cc(I)c(OCCN(CC)CC)c(I)c1	Toxic
C1CCC(C(CC2CCCCN2)C2CCCCC2)CC1 (centres undefined)	Toxic
[H]/N=C(/N)N[C@H]1[C@H](O)[C@@H](O)[C@H](O[C@@H]2O[C@@H](C)[C@](O)(C=O)[C@H]2O[C@@H]2O[C@@H](CO)[C@H](O)[C@@H](O)[C@@H]2NC)[C@@H](N/C(N)=N\[H])[C@@H]1O	Non-toxic
C[C@H](C(N)=O)N1CCc2cc(OCc3cccc(F)c3)ccc2C1	Toxic

Entry CN(C)CCCn1c2c(c3ccccc31)CCCCCC2 : reported Activity = ? Toxic

Would you mind doing CCC1(c2ccccc2)C(=O)NC(=O)NC1=O as well? Non-toxic

Queued: CCN(CCO)CCCCOc1ccc2c(-c3ccc(Br)cc3)nsc2c1 Toxic

Follow-up item: Cc1cccc(CN2CCN(C(c3ccccc3)c3ccc(Cl)cc3)CC2)c1 (centres undefined) Toxic

###

Test: Induction of phospholipidosis in bovine corneal fibroblasts assessed as lamellar inclusion bodies after 72 hrs by light microscopy
Set-up: species or system Bos taurus, Cornea
Details: cattle, corneal fibroblast
quantity measured: Activity

Some entries whose results are on file:
>>> print(df.to_string())
                                   compound  result_value
0  OCCOCCN1CCN(C(c2ccccc2)c2ccc(Cl)cc2)CC1 (centres undefined) [HYDROXYZINE]         Toxic
1  CN1CCN([C@@H]2CCN(C(=O)c3cc(C(F)(F)F)cc(C(F)(F)F)c3)C[C@@H]2c2ccccc2)CC1         Toxic
2  CN(CC[C@H]1CC[C@H](CN2CCCCC2)CC1)C(=O)Oc1ccc(C(F)(F)F)cc1         Toxic
3  COc1ccc(C2CCOCC2)c2sc(NC(=O)N(C)C3CCN(C)CC3)nc12         Toxic
4  CN(C)CCCN1c2ccccc2Sc2ccccc21 [PROMAZINE]         Toxic

GET /values?readout=Activity&item= CC(C)(CCn1cnc(-c2cccnc2)c1)NCC(=O)N1CCC[C@H]1C#N.CS(=O)(=O)O Non-toxic

CCO[C@@H](C)c1ccc2c(n1)N1[C@@H](CNC[C@H]1C)C2.Cl ? Non-toxic

Now this one: CC/C(=C(\c1ccccc1)c1ccc(OCCN(C)C)cc1)c1ccccc1 [TAMOXIFEN] Toxic

Input COc1cc(F)c(C(OC)C(=O)NCc2ccc(C(=N)N)cc2)c(F)c1.Cl (centres undefined) Non-toxic

###

Experiment: Induction of phospholipidosis in bovine corneal fibroblasts assessed as lamellar inclusion bodies after 72 hrs by light microscopy
Set-up: species or system Bos taurus, Cornea
Settings: cattle, corneal fibroblast
quantity measured: Activity

molecule	Activity
CC(=O)Nc1ccc(N2CCN(CCCN(C)C)CC2)cc1 [PIPERAMIDE]	Toxic
COc1ccc(S(=O)(=O)N(c2ccc(F)cc2)C2CCN([C@@H]3COCC[C@@]3(O)c3ccccc3)CC2)cc1	Non-toxic
O=C(N[C@H](CO)[C@H](O)c1ccc([N+](=O)[O-])cc1)C(Cl)Cl	Non-toxic
Cc1cc(C#Cc2cn(-c3ccc(F)cc3)c(C)n2)ccn1	Non-toxic
CCN(CC)CCOc1ccc2c(c1)C(=O)c1cc(OCCN(CC)CC)ccc1-2	Toxic

What does the record list as Activity for CC[C@H]1OC(=O)[C@H](C)[C@@H](O[C@H]2C[C@@](C)(OC)[C@@H](O)[C@H](C)O2)[C@H](C)[C@@H](O[C@@H]2O[C@H](C)C[C@H](N(C)C)[C@H]2O)[C@](C)(O)C[C@@H](C)C(=O)[C@H](C)[C@@H](O)[C@]1(C)O ? Non-toxic

Now consider CNCCCC12CCC(c3ccccc31)c1ccccc12 . Toxic

What do we get for O=C(c1cc(C(F)(F)F)cc(C(F)(F)F)c1)N1CC[C@@H](N2CCOCC2)[C@@H](c2ccc(Cl)cc2)C1 ? Toxic

Please give the result for CS(=O)(=O)O.C[C@H](NCc1ccc(OCc2cccc(F)c2)cc1)C(N)=O [SAFINAMIDE MESYLATE] too. Toxic

Follow-up item: CN1CCN(C(c2ccccc2)c2ccc(Cl)cc2)CC1 (stereo not drawn) Toxic
